Molecular target: Estrogen Receptor (ERα) in MCF-7 cells (Homo sapiens (Human))
Sequence (P03372 whole entry): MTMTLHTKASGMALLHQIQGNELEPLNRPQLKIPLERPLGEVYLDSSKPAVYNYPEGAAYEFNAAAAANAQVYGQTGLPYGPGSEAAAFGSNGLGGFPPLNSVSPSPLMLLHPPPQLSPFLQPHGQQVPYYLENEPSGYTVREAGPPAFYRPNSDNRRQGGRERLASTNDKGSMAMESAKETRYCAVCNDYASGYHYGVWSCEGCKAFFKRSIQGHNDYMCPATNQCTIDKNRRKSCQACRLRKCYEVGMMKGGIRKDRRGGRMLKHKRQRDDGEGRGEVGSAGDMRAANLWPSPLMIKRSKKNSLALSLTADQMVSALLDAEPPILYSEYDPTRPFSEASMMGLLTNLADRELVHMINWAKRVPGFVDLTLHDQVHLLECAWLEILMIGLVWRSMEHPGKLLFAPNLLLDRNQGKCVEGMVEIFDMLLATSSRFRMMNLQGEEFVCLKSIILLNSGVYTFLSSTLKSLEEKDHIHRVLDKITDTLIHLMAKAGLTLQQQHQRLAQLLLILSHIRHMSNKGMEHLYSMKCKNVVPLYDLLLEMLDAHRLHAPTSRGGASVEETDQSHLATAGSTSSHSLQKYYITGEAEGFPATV
Test: MCF-7 ER down-regulation assay (immuno-fluorescence)
experimental.endpoint: IC50 (nM)
All answers are understood in nM, so give the number only.

Fill in the blank: the reported IC50 of `Cc1c(OCCNCCCF)ncnc1[C@@H]1c2[nH]c3ccccc3c2C[C@@H](C)N1CC(F)(F)F` is ____. 0.2

Fill in the blank: the reported IC50 of `COc1ccc(OCCNCCCF)cc1[C@@H]1c2[nH]c3ccccc3c2C[C@@H](C)N1CC(F)(F)F` is ____. 0.12

Fill in the blank: the reported IC50 of `C[C@@H](CN1[C@H](c2c(F)cnc(OCCNCCCF)c2Cl)c2[nH]c3ccccc3c2C[C@H]1C(F)(F)F)C(=O)O` is ____. 0.95

Fill in the blank: the reported IC50 of `COc1ccc(NCCNCCCF)nc1[C@@H]1c2[nH]c3ccccc3c2C[C@@H](C)N1CC(F)(F)F` is ____. 220
